system: HCV NS5B polymerase (His-tagged, C-terminal 21 amino acid deleted NS5B, HC-J4) (Hepatitis C virus genotype 1b)
Construct: The cDNA encoding NS5B amino acid 1-570 (HC-J4, genotype 1b); His tag (His6, from pET-21b) (C); made in house; host or cells: E. coli BL21 (DE3)
Sequence (O92972 2417-3000, looked up, stated change not applied): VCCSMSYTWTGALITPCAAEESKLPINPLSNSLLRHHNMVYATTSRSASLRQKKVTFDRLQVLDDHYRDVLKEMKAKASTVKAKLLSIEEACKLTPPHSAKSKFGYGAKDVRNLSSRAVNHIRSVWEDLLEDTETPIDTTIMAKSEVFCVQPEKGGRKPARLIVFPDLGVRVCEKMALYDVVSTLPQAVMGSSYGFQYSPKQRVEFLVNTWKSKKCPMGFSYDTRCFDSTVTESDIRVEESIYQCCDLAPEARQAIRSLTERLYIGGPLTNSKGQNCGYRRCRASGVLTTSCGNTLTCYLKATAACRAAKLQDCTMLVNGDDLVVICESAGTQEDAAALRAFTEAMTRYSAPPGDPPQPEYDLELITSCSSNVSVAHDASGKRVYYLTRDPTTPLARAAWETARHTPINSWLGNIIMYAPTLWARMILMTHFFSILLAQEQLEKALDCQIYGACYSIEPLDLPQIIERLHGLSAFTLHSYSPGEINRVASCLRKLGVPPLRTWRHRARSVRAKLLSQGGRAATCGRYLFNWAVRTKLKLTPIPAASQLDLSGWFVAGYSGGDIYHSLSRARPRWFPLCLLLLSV
method.notes: NS5b polymerase assay (biochemical RdRp assay, 3H-GTP incorporation, SPA beads)
Parameters: species or system HCV genotype 1b
details: 200 nM enzyme, 3H-GTP incorporation, 2 h at 25° C.; read-out: NS5B Polymerase Assay IC50
pIC50: −log10 of the molar value.
Property: pIC50; scope: individual molecules

Guide cases for pIC50, answers given:
{"molecule": "CCCOc1ccccc1C1CC(=O)C2=C(C1)Nc1ccccc1N(C(=O)C(F)(F)F)C2c1ccc(OC)cc1 (stereo not drawn)", "pIC50": "< 4.37"}
{"molecule": "CCCCCC(=O)N1c2ccccc2NC2=C(C(=O)CC(c3ccc(C)cc3)C2)C1c1ccccc1Cl (mixture of isomers)", "pIC50": "< 4.37"}

Lookup result for CCC(=O)N1c2ccccc2NC2=C(C(=O)CC(c3cccc([N+](=O)[O-])c3)C2)C1c1ccc(Cl)cc1 (mixture of isomers) ; measured pIC50: < 4.37

Lookup result for CCCCCC(=O)N1c2ccccc2NC2=C(C(=O)CC(c3ccc(OC)c(OC)c3)C2)C1c1cccc([N+](=O)[O-])c1 (mixture of isomers) ; measured pIC50: < 4.48

Lookup result for O=C1CC(c2cccc([N+](=O)[O-])c2)CC2=C1C(c1ccc(Cl)cc1)N(C(=O)C(F)(F)F)c1ccccc1N2 (mixture of isomers) ; measured pIC50: < 4.37

Lookup result for CCOc1ccccc1C1C2=C(CC(c3ccc(OC)cc3)CC2=O)Nc2ccccc2N1C(C)=O (stereo not drawn) ; measured pIC50: < 4.37
